These measurements were taken from patent EP4772193A1.

Assign Relative binding activity to each entry below.
Biological target: T1, recombinant human soluble gpNMB (recombinant human gpNMB-FLAG-His) (human, UniProt Q14956 23-498)
T1 sequence: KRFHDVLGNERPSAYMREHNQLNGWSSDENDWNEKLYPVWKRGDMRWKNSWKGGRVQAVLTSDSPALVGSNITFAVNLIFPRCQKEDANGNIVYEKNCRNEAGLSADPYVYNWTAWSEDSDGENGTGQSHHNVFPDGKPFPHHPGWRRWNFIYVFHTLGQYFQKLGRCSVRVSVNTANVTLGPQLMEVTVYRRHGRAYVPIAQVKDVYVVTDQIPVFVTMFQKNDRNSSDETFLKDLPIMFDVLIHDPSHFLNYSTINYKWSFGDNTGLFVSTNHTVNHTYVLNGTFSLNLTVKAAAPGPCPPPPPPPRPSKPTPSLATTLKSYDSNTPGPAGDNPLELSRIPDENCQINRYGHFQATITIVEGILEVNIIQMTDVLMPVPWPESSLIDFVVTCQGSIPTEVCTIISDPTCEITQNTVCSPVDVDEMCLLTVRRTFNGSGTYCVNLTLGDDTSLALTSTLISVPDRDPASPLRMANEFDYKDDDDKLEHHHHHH
Assay: antigen ELISA, vs hGPN06-1_H1L1
Quick one: just the number, no unit, thanks!

For the binder hGPN06-1_H1L1 VH R98A (antibody, V domains shown) VH: QVQLVQSGAEVKKPGASVKVSCKASGYTFTDNWMGWVKQRPGQGLEWIGAIDPSDSFTNYNQNFKGRVTMTVDTSISTAYMELSRLRSDDSAVYFCTASGYYGSPKLGGDYWGQGTLVTVSS VL: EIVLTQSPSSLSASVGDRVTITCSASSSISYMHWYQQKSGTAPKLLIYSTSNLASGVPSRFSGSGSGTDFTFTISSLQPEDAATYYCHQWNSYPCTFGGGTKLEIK , what Relative binding activity is on record?
0.05

For the binder hGPN06-1_H1L1 VH G103A (antibody, V domains shown) VH: QVQLVQSGAEVKKPGASVKVSCKASGYTFTDNWMGWVKQRPGQGLEWIGAIDPSDSFTNYNQNFKGRVTMTVDTSISTAYMELSRLRSDDSAVYFCTRSGYYASPKLGGDYWGQGTLVTVSS VL: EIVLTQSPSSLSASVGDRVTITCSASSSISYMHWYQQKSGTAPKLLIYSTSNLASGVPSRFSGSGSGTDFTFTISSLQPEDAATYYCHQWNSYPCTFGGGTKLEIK , what Relative binding activity is on record?
1.14

For the binder hGPN06-1_H1L1 VH G109A (antibody, V domains shown) VH: QVQLVQSGAEVKKPGASVKVSCKASGYTFTDNWMGWVKQRPGQGLEWIGAIDPSDSFTNYNQNFKGRVTMTVDTSISTAYMELSRLRSDDSAVYFCTRSGYYGSPKLGADYWGQGTLVTVSS VL: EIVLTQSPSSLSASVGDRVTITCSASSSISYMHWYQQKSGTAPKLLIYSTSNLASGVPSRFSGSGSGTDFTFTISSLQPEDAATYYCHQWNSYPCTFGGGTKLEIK , what Relative binding activity is on record?
0.34
